assay: qHTS for differential inhibitors of proliferation of Plasmodium falciparum line D10 (AID 1877); details: series mostly up to 28.7 µM;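 further: parasites grown with compound for 72 h before DNA staining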; further: potency means the concentration at half of the fitted maximal effect
Records with an inconclusive call do not appear. The source made the active and inactive calls. The call rests on the fitted dose curve; in most records, active means well fitted curve in the direction sought with a large enough effect; inconclusive means small, poorly fitted or top-dose-only effect, or another doubt; inactive means no such curve, though single readings can be large or run the other way.
ASSAY_METRIC: Potency

The following molecules have reported results that may help.
MOLECULE	Potency
Clc1ccc(C(c2ccc(Cl)cc2)n2cc[n+](CC(OCc3ccc(Cl)cc3Cl)c3ccc(Cl)cc3Cl)c2)cc1 (stereo unspecified)	7.08 µM (active)
NC(=NCCC[C@H](N)C(=O)O)N[N+](=O)[O-]	inactive
NCc1cc(=O)[nH]o1	inactive
CC(C)Oc1cccnc1N(C)C1CCN(Cc2ccccc2)CC1	inactive
S=C(NC1CCCCC1)N1CCC(c2cnc[nH]2)CC1	inactive

Request: For the molecule NCCc1c[nH]c2ccc(O)cc12 , report Potency.
Result: inactive
